Origin of the recorded values: patent US20160122421A1

So I've got a bunch of binders here, and I need their pKd values.
Molecular target: T1, eTau 1b
T1 construct: member of the group m9
T1 polypeptide: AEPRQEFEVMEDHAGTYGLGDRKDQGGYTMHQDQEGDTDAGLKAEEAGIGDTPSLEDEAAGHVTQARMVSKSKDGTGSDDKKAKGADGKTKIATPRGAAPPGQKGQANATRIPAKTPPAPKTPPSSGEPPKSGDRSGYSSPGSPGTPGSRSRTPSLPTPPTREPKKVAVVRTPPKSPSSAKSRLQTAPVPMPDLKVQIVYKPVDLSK
Experiment: relative binding affinity, method not named (Table 4)
One number for each entry, as −log10 of the molar value.

Solved cases below.
VH4/Vk3 (antibody, V domains shown, member of the group m7; also called humanized IPN002 variant VH4/Vk3) VH: EVQLVESGGALVKPGGSLRLSCAASGFSFSKYGMSWVRQAPGKGLEWVATISSSGSRTYYPDSVKGRFTISRDNAKNTLYLQMNSLRAEDTAMYYCAISWDGAMDYWGQGTTVTVSS VL: DVVMTQSPLSLPVTLGQPASISCKSSQSIVHSNGNTYLEWYLQKPGQSPQLLVYKVSNRFSGVPDRFSGSGSGTDFTLKISRVEAEDVGVYYCFQGSLVPWAFGGGTKVEIK :: 9.50
humanized IPN002 variant VH2/Vk2 (antibody, V domains shown) VH: EVHLVESGGALVKPGGSLRLSCAASGFSFSKYGMSWVRQAPGKGLEWVATISSSGSRTYYPDSVKGRFTISRDNAKNTLYLQMNSLRAEDTAMYYCSISWDGAMDYWGQGTTVTVSS VL: DVVMTQSPLSLPVTLGQPASISCKSSQSIVHSNGNTYLEWYLQKPGQSPQLLVYKVSNRFSGVPDRFSGSGSGTDFTLKISRVEAEDVGTYYCFQGSLVPWAFGGGTKVEIK :: 9.64
VH3/Vk4 (antibody, V domains shown, member of the group m7; also called humanized IPN002 variant VH3/Vk4) VH: EVQLVESGGALVKPGGSLRLSCAASGFSFSKYGMSWVRQAPGKGLEWVATISSSGSRTYYPDSVKGRFTISRDNAKNTLYLQMNSLRAEDTAMYYCSISWDGAMDYWGQGTTVTVSS VL: DVVMTQSPLSLPVTLGQPASISCKSSQSIVHSNGNTYLEWYLQKPGQSPQLLIYKVSNRFSGVPDRFSGSGSGTDFTLKISRVEAEDVGVYYCFQGSLVPWAFGGGTKVEIK :: 9.42
VH1/Vk4 (antibody, V domains shown, member of the group m7; also called humanized IPN002 variant VH1/Vk4) VH: EVHLVESGGALVKPGGSLRLSCAASGFSFSKYGMSWVRQAPGKGLEWVATISSSGSRTYYPDSVKGRFTISRDNAKNTLYLQMSSLKSEDTAMYYCSISWDGAMDYWGQGTSVTVSS VL: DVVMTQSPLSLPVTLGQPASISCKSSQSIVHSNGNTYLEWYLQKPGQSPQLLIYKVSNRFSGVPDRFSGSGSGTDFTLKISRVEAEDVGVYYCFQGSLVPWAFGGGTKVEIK :: 9.22

Give measured pKd for every item shown.
1. VH2/Vk4 (antibody, V domains shown, member of the group m7; also called humanized IPN002 variant VH2/Vk4) VH: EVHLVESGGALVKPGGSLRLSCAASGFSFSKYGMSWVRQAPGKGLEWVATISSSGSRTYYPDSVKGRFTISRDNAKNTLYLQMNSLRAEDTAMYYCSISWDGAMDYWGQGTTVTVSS VL: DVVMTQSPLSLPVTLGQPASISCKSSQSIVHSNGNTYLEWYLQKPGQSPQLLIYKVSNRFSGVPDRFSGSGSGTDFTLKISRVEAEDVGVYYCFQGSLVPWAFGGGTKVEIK
2. VH1/Vk2 (antibody, V domains shown, member of the group m7; also called humanized IPN002 variant VH1/Vk2) VH: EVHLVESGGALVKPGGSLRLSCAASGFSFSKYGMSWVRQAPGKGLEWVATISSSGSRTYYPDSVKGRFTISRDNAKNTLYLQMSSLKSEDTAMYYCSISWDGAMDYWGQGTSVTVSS VL: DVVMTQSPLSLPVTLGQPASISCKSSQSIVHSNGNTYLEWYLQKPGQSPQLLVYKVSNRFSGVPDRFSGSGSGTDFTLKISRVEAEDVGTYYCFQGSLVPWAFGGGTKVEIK
3. VH4/Vk4 (antibody, V domains shown, member of the group m7; also called humanized IPN002 variant VH4/Vk4) VH: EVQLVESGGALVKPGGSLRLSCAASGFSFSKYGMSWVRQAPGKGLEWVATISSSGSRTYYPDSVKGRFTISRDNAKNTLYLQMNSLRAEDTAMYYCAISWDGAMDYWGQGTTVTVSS VL: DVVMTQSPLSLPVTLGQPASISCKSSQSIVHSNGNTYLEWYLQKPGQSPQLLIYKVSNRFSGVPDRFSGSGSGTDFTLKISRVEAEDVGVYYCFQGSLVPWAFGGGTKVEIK
4. VH3/Vk3 (antibody, V domains shown, member of the group m7; also called humanized IPN002 variant VH3/Vk3) VH: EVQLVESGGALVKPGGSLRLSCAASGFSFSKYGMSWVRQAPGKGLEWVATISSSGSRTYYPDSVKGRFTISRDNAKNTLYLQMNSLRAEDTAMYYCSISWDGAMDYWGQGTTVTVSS VL: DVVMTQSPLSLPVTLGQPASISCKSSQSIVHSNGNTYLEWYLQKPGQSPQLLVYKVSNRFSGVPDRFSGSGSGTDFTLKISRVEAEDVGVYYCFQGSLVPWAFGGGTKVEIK
5. VH1/Vk3 (antibody, V domains shown, member of the group m7; also called humanized IPN002 variant VH1/Vk3) VH: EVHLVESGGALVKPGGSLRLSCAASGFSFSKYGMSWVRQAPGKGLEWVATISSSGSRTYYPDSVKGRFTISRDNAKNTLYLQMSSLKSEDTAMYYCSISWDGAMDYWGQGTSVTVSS VL: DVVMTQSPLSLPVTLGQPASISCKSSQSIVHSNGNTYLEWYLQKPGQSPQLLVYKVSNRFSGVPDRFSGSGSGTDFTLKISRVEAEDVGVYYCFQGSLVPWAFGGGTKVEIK
6. VH1/Vk1 (antibody, V domains shown, member of the group m7; also called humanized IPN002 variant VH1/Vk1) VH: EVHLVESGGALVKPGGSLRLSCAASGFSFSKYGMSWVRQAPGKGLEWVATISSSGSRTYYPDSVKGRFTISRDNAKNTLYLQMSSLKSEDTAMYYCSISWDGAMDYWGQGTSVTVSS VL: DVLMTQSPLSLPVTLGQPASISCKSSQSIVHSNGNTYLEWYLQKPGQSPQLLVYKVSNRFSGVPDRFSGSGSGTDFTLKISRVEAEDVGTYYCFQGSLVPWAFGGGTKVEIK

## Output
9.28
9.25
9.27
9.16
9.23
9.13
